Test system: OVCAR-3
measurementName: GI50 (nM)
Give bare numbers, in nM.

See these solved cases before continuing.
[
  {
    "cpdSmiles": "O=C(Nc1nc2ccc(F)cc2s1)c1cccnc1Nc1ccc(Cl)cc1Cl",
    "GI50 [nM]": 2440
  },
  {
    "cpdSmiles": "COc1cc(Nc2ncccc2C(=O)Nc2nc3ccc(F)cc3s2)cc(OC)c1OC",
    "GI50 [nM]": 2770
  }
]

I have 2 compounds here; please give me GI50 for each one.
1. COc1ccc2nc(NC(=O)c3cccnc3Nc3cc(OC)c(OC)c(OC)c3)sc2c1
2. O=C(Nc1nc2ccc(F)cc2s1)c1cccnc1Nc1ccc(Cl)cc1

RESULT:
[8920, 2170]
